Test system: EKVX NSCLC
Protocol text: NCI tumour cell line growth inhibition, 48 h
Can you tell me GI50 for the items I'm about to list?

Inquiry: Which GI50 reading was recorded for the compound "COc1ccc(Oc2cc(NCCC(F)(F)F)c3ncc(-c4ccc(C(=O)NC5CC5)c(C)c4)n3n2)c(F)c1F" ?
Reply text: 2.53 µM

Inquiry: Which GI50 reading was recorded for the compound "CC1(C)N=C(N)N=C(N)N1c1ccc(Cl)c(Cl)c1" ?
Reply text: 1.97 µM

Inquiry: Which GI50 reading was recorded for the compound CSc1nc(N)c2c(n1)NC(c1ccccc1)C1CCc3ccccc3C1=N2 (stereo not drawn) ?
Reply text: 7 µM

Inquiry: Which GI50 reading was recorded for the compound "CC1(C)CC(=O)c2c(ccc(C(=O)C[C@@H](N)CO)c2N)O1" ?
Reply text: 19 µM

Inquiry: Which GI50 reading was recorded for the compound CCN1C(=O)N(CC)C2C1NN=c1s/c(=C\c3cccc([N+](=O)[O-])c3)c(=O)n12 (stereo not drawn) ?
Reply text: 0.382 µM

Inquiry: Which GI50 reading was recorded for the compound "O=C(c1ccccc1)c1nn(-c2ccccc2)c2nc3nc(-c4ccccc4)cc(=O)n3nc12" ?
Reply text: 22.2 µM

Inquiry: Which GI50 reading was recorded for the compound CCCCCSC1C2C(=O)C(Br)=CC13CCNc1c(O)c4c5c(c13)=[N+]2CCC=5C=N4 (stereo not drawn) ?
Reply text: 1.82 µM

Inquiry: Which GI50 reading was recorded for the compound "CCN(CC)c1ccc(/C=C/C=C(/C#N)C(N)=S)cc1" ?
Reply text: 6.5 µM

* * *

Tested on: SF-295 CNS
Protocol text: NCI tumour cell line growth inhibition, 48 h
Measurement name: TGI (µM)
Entry rule: numbers only, all in µM.

Inquiry: Can you look up TGI on SF-295 CNS for "COC(=O)/C(=C\c1c(-c2ccccc2)[nH]c2ccccc12)S(C)(=O)=O" ?
Reply text: 19.9

Inquiry: Can you look up TGI on SF-295 CNS for "Cc1ncc(-c2ccnc(Nc3ccc(S(C)(=O)=O)cc3)n2)n1C(C)C" ?
Reply text: 6.75

Inquiry: Can you look up TGI on SF-295 CNS for "Cc1cc2c(cc1C)[n+](Cc1ccc3ccccc3n1)cn2Cc1ccc2ccccc2n1" ?
Reply text: 2.63

* * *

Test system: OVCAR-4 ovarian
Protocol text: NCI tumour cell line growth inhibition, 48 h
Can you tell me TGI for the items I'm about to list?

Inquiry: Which TGI reading was recorded for the compound "O=C(CCc1ccc(O)cc1)NCCCNC(=O)CCc1ccc(O)cc1" ?
Reply text: > 100 µM

Inquiry: Which TGI reading was recorded for the compound "O=[N+]([O-])c1ccc(COc2cccc3cccnc23)cc1" ?
Reply text: 36.7 µM

Inquiry: Which TGI reading was recorded for the compound "CC[C@H]1C=CCC[C@@]2(C[C@@H]3CC[C@@H]4[C@H](C(=O)OCCCCCCCCCCCCCCCC(=O)N(CCCNC(C)=O)C[C@H](CCNC(C)=O)OC(C)=O)[C@]5(CCC[C@@H](C)O5)NC(=[N+]34)N2)O1" ?
Reply text: 1.84 µM

Inquiry: Which TGI reading was recorded for the compound "COc1ccc(Oc2cc(NCCC(F)(F)F)c3ncc(-c4ccc(C(=O)NC5CC5)c(C)c4)n3n2)c(F)c1F" ?
Reply text: > 87.2 µM

Inquiry: Which TGI reading was recorded for the compound "O=[p+]1c2ccccc2[nH]c2ccccc21" ?
Reply text: > 100 µM

Inquiry: Which TGI reading was recorded for the compound Cc1cccc(C(=O)O)c1CC1NCCC2c3ccccc3NC12 (stereo not given) ?
Reply text: > 100 µM

Inquiry: Which TGI reading was recorded for the compound "CCn1c(=O)c2c3cc(OC(C)=O)ccc3oc2c2ccc(OC(C)=O)cc21" ?
Reply text: > 100 µM

Inquiry: Which TGI reading was recorded for the compound "COc1ccc2c(c1)CCN1C3=C(CCC3)C(=O)C[C@@H]21" ?
Reply text: > 100 µM

Inquiry: Which TGI reading was recorded for the compound "CCc1c(C)c2ccc(OCC(=O)N=Nc3c(O)[nH]c4ccccc34)c(C)c2oc1=O" ?
Reply text: 1.86 µM

Inquiry: Which TGI reading was recorded for the compound NC(=S)N/N=C1\CCCCC1C(O)(C(F)(F)Cl)C(F)(F)Cl (stereo not given) ?
Reply text: > 10 µM

Inquiry: Which TGI reading was recorded for the compound "Cc1[nH]c(=O)nc(N(CCO)/N=C/c2ccc(Cl)cc2)c1C(=O)Nc1ccc(Cl)cc1" ?
Reply text: > 100 µM

Inquiry: Which TGI reading was recorded for the compound "COc1cc2c(cc1OC)[C@@H]([C@H](O)c1ccccc1)NCC2" ?
Reply text: > 100 µM

Inquiry: Which TGI reading was recorded for the compound "CN1CCN(c2ccc(C(=O)Nc3cccc(C#Cc4cccc5[nH]nc(N)c45)c3)cc2C(F)(F)F)CC1" ?
Reply text: 4.51 µM

Inquiry: Which TGI reading was recorded for the compound "Cc1nc2ccccc2n1Cc1nnc2n1N=C(c1ccccc1)CS2" ?
Reply text: > 100 µM

Inquiry: Which TGI reading was recorded for the compound "C[C@]12CC[C@@H]3c4ccc(O)cc4CC[C@H]3[C@@H]1CC[C@@H]2NS(=O)(=O)c1ccc2ccccc2c1" ?
Reply text: 9.36 µM

Inquiry: Which TGI reading was recorded for the compound "Oc1ccccc1-c1nn2c(CCCCCCCCc3nnc4sc(-c5ccccc5O)nn34)nnc2s1" ?
Reply text: > 100 µM

Inquiry: Which TGI reading was recorded for the compound CC(C)(SCc1ccccc1)C(N)C(=O)O (stereo not given) ?
Reply text: > 100 µM

Inquiry: Which TGI reading was recorded for the compound "Cn1c2ccccc2c2nnc(NNCc3ccccn3)nc21" ?
Reply text: 13.9 µM

Inquiry: Which TGI reading was recorded for the compound CC1CC(C(=O)OC2OC(COC3OC(CO)C(OC4OC(C)C(O)C(O)C4O)C(O)C3O)C(O)C(O)C2O)C2CCC3(C)C(=CCC4(C)C3CCC3C(C)(CO)C(O)C(O)CC34C)C2C1C (stereo not given) ?
Reply text: 37.3 µM

Inquiry: Which TGI reading was recorded for the compound "CCOC(=O)C1=C(C)NC(C)=C(C(=O)OCC)C1c1ccc(C)cc1" ?
Reply text: > 100 µM
